Assay explanation: qHTS assay to identify small molecule agonists of the constitutive androstane receptor (CAR) signaling pathway - cell viability counter screen (AID 1224836); further: nearly all actives have a fitted effect of over 45% in size
Experimental context: HepG2-CYP2B6-hCAR viability, CellTiter-Fluor, 23 h, PK11195 added to every well; series mostly up to 92.4 µM
Results filed as inconclusive are left out. Calls of active or inactive are those of the source. The call rests on the fitted dose curve; in most records, active means well fitted cell-killing curve with a large enough effect in the repeat runs; inconclusive means weak or mixed curves, or effect the other way; inactive means flat fitted curve, though single readings scatter.
API: response.call in active, inactive

Solved cases (8 shown):
# Compound, Label class
measured = [
    ("CN1CN(C)CN(C)C1", "inactive"),
    ("CCCN(CCc1cccs1)[C@H]1CCc2c(O)cccc2C1", "inactive"),
    ("Cc1nc(Nc2ncc(C(=O)Nc3c(C)cccc3Cl)s2)cc(N2CCN(CCO)CC2)n1", "active"),
    ("C1CC(COCC2CO2)CCC1COCC1CO1 (centres undefined)", "inactive"),
    ("COc1nccnc1CC(C)C", "inactive"),
    ("O=C(O)CCCCCCC(=O)O", "inactive"),
    ("CCc1cccc(CC)c1N(COC)C(=O)CS(=O)(=O)O", "inactive"),
    ("CCCCCCCCCCc1ccccc1", "inactive"),
]

QUERY: Tell me the assay call for `CCCCCCCCCC(=O)N(C)C` please.
RESULT: inactive

QUERY: Tell me the assay call for `CCCCCCCCCCCCOC(=O)c1cc(O)c(O)c(O)c1` please.
RESULT: active

QUERY: Tell me the assay call for `Cc1ccc2ccc3cccc4ccc1c2c34` please.
RESULT: inactive

QUERY: Tell me the assay call for `CC1=C(/C=C/C(C)=C/C=C/C(C)=C/C(=O)Nc2ccc(O)cc2)C(C)(C)CCC1` please.
RESULT: active

QUERY: Tell me the assay call for `CC(C)N=C(N)/N=C(\N)Nc1ccc(Cl)cc1` please.
RESULT: inactive

QUERY: Tell me the assay call for `O=C(O)CC(=O)O` please.
RESULT: inactive

QUERY: Tell me the assay call for CCC(C)c1ccccc1 (centres undefined) please.
RESULT: inactive
